Would you kindly list pIC50 for each of these molecules?
target.of.assay: EGFR WT (Homo sapiens, UniProt P00533)
Sequence (P00533 25-1210 N540K): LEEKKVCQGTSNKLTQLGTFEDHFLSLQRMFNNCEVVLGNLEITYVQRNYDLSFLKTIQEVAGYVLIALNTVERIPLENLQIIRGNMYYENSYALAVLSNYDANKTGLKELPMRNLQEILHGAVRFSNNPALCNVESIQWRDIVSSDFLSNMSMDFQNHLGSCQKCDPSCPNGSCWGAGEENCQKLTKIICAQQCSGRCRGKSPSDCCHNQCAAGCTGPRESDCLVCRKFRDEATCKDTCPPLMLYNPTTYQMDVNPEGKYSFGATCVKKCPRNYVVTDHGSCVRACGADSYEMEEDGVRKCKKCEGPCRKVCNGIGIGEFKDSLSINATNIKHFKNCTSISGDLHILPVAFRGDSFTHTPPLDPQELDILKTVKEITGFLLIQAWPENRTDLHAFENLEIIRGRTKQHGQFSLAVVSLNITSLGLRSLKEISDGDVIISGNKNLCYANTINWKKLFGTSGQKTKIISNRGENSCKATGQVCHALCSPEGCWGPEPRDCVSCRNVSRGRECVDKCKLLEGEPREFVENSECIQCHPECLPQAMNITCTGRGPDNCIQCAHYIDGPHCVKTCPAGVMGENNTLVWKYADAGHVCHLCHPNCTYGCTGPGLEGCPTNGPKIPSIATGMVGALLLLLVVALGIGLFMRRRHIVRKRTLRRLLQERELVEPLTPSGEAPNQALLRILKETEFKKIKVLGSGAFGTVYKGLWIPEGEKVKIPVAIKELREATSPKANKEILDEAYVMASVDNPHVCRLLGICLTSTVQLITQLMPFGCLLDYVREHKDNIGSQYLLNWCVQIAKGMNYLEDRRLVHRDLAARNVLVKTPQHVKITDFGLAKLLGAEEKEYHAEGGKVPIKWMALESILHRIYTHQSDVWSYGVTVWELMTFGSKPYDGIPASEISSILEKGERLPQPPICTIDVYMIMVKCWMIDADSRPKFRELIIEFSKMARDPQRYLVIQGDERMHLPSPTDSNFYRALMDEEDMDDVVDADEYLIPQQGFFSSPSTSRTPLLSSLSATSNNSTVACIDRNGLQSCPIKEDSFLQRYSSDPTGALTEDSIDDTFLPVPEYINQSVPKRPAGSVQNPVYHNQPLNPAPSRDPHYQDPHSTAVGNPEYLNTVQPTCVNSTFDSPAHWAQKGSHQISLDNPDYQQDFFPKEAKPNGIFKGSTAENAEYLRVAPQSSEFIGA
protocol.text: Activity for inhibiting EGFR (Table A), EGFR WT
Format: cell-based
assay.setup: read-out: EGFR WT, potency code (IC50)
pIC50: −log10 of the molar value.

Inquiry: # input molecule: C=CC(=O)Nc1cc2c(Nc3ccc(OCc4ccccn4)c(Cl)c3)ncnc2cc1OCCN1CC2CC1CO2 (stereo not drawn) [compound 39] ; wanted: its pIC50
Reply text: 6.00 to 6.30

Inquiry: Same lookup for C=CC(=O)Nc1cc2c(Nc3ccc(CC(=O)c4ccccn4)c(Cl)c3)ncnc2cc1O[C@@H]1CCN(C)C1 [compound 121] , please.
Reply text: < 6.00

Inquiry: Same lookup for CC#CC(=O)Nc1cc2c(Nc3ccc(OCc4ccccn4)c(Cl)c3)ncnc2cc1OCCN1CCOCC1 [compound 5] , please.
Reply text: 7.30 to 7.52

Inquiry: Same lookup for C=CC(=O)Nc1cc2c(Nc3cc(Cl)c(OCc4ccccn4)cc3F)ncnc2cc1OC1CCN(C)C1 (stereo not drawn) [compound 60] , please.
Reply text: 6.52 to 6.70

Inquiry: Same lookup for C=CC(=O)Nc1cc2c(Nc3ccc(OCc4cccc(F)c4)c(Cl)c3)ncnc2cc1OCCCN1CC(OC)C1 [compound 144] , please.
Reply text: 6.70 to 7.00

Inquiry: Same lookup for C=CC(=O)Nc1cc2c(Nc3cnc(NCc4ccccn4)c(Cl)c3)ncnc2cc1OCCN1CCOCC1 [compound 97] , please.
Reply text: 6.00 to 6.30

Inquiry: Same lookup for C=CC(=O)Nc1cc2c(Nc3ccc(OCc4cccc(F)c4)c(Cl)c3)ncnc2cc1OCCN1CCOCC1 [compound 27] , please.
Reply text: 6.30 to 6.52

Inquiry: Same lookup for C=CC(=O)Nc1cc2c(Nc3ccc(OCc4ccccn4)c(Cl)c3)ncnc2cc1OCCN1CC2(CN(C)C2)C1 [compound 119] , please.
Reply text: 6.30 to 6.52

Inquiry: Same lookup for C=CC(=O)Nc1cc2c(Nc3ccc(OCc4ccccn4)c(Cl)c3)ncnc2cc1OCCN1CC(OC)C1 [compound 35] , please.
Reply text: 6.30 to 6.52

Inquiry: Same lookup for C=CC(=O)Nc1cc2c(Nc3ccc(OCc4ccccn4)c(Cl)c3)ncnc2cc1OCCN1CCCC1 [compound 28] , please.
Reply text: 6.52 to 6.70

Inquiry: Same lookup for C=CC(=O)Nc1cc2c(Nc3ccc(OCc4ccccn4)c(Cl)c3)ncnc2cc1C#C[C@H]1CCN(C)C1 [compound 85] , please.
Reply text: 6.52 to 6.70

Inquiry: Same lookup for C=CC(=O)Nc1cc2c(Nc3ccc(OCc4ccccn4)c(Cl)c3)ncnc2cc1OCC1(N)CC1 [compound 55] , please.
Reply text: < 6.00

Where these numbers come from: patent US11034672B1
